Give IC50 for every item shown.
# System: B16-F10 (murine melanoma)
# assayProcedure: Alamar blue cytotoxicity assay, B16-F10
# Type: cell-based
# conditionSet: Mus musculus, 72 h incubation
# Description: The in vitro cytotoxic activity of the compounds (Table 1) was evaluated against cancer cell lines HCT116 (human colon carcinoma), HepG2 (human hepatocellular carcinoma), B16F10 (murine melanoma carcinoma) and non-cancerous cell line MRC-5 (human lung fibroblast) using the Alamar blue assay after 72 h of incubation; doxorubicin (DOX) was used as a positive control. […] Cell viability was measured using the Alamar blue assay, as previously described. […]

// solved cases for IC50 follow
Cc1ccc(/C=N/NC(=S)Nc2c3ccccc3nc3ccccc23)cc1 [CL-06]
23.5 µM
COc1ccc2nc3cc(Cl)ccc3c(NC(=S)N/N=C/c3ccc(Br)cc3)c2c1 [DL-10]
34.6 µM
Oc1cccc(/C=N/NC(=S)Nc2c3ccccc3nc3ccccc23)c1 [CL-08]
21.3 µM
Oc1ccc(/C=N/NC(=S)Nc2c3ccccc3nc3ccccc23)cc1 [CL-07]
19.8 µM
COc1ccc2nc3cc(Cl)ccc3c(NC(=S)N/N=C/c3ccc(Cl)cc3Cl)c2c1 [DL-04]
> 60 µM
COc1ccc2nc3cc(Cl)ccc3c(NC(=S)N/N=C/c3ccc([N+](=O)[O-])cc3)c2c1 [DL-05]
> 60 µM
COc1cccc2c1C(=O)c1c(O)c3c(c(O)c1C2=O)C[C@@](O)(C(=O)CO)C[C@@H]3O[C@H]1C[C@H](N)[C@H](O)[C@H](C)O1 [DOX, doxorubicin, reference compound]
0.03 µM
COc1ccc(/C=N/NC(=S)Nc2c3ccccc3nc3ccccc23)cc1 [CL-03]
> 70 µM
COc1ccc2nc3cc(Cl)ccc3c(NC(=S)N/N=C/c3ccc(N(C)C)cc3)c2c1 [DL-09]
46 µM
COc1ccc2nc3cc(Cl)ccc3c(NC(=S)N/N=C/c3ccc(C)cc3)c2c1 [DL-06]
26.3 µM

Next, consider the following compound.
Q: Please report the recorded IC50 for O=[N+]([O-])c1ccc(/C=N/NC(=S)Nc2c3ccccc3nc3ccccc23)cc1 [CL-05] .
A: 22.7 µM
